These entries and their values trace back to ChEMBL document CHEMBL5537149.

experiment: Metabolic stability in human liver microsomes assessed as half-life preincubated for 5 mins followed by NADPH addition and measured upto 60 mins by HPLC-MS/MS analysis; assay type: ADME, Microsome; conditions: time < 65 min
quantity.measured: half-life

Data request: Given the compound CCNc1nc(C)cc(N2CCN(C(=O)c3cccc(Cl)c3)CC2)n1 , what is its reported half-life?
Data returned: > 1 h

###

assay: Cytotoxicity against African green monkey Vero cells assessed as reduction in overall metabolic activity incubated for 5 days by MTS reagent based absorbance method; format: toxicity, cell-based; conditions: chlorocebus sabaeus, time 5 day
Criterion: CC50 at 120 h strictly less than 50 µM. Met: Criterion met. Not met: Criterion not met.

Example cases with answers are listed next.
Data request: I wonder whether Cc1cc(N2CCN(S(=O)(=O)c3ccc(Cl)cc3)CC2)nc(NC(C)C)n1 has CC50 at 120 h below 50 µM. Can you tell?
Data returned: Criterion met

Data request: Please check: CC50 at 120 h for CCNc1cc(C)nc(N2CCN(S(=O)(=O)c3ccc4ccccc4c3)CC2)n1 , strictly under 50 µM or not?
Data returned: Criterion met

Further cases:
Data request: # check: CC50 at 120 h < 50 µM for CCNc1nc(C)cc(N2CCN(C(=O)c3cc(Cl)cc(Cl)c3)CC2)n1
Data returned: Criterion not met

Data request: Decide: CC50 at 120 h of CCNc1nc(C)cc(N2CCN(C(=O)c3ccc(OC)cc3)CC2)n1 strictly below 50 µM?
Data returned: Criterion not met

Data request: Record Cc1nc(Cl)c(N)c(N2CCN(C(=O)c3ccc(Cl)cc3)CC2)n1 : is its CC50 at 120 h strictly below 50 µM?
Data returned: Criterion not met

Data request: # check: CC50 at 120 h < 50 µM for CCNc1nc(C)cc(N2CCN(C(=O)c3ccc(C)cc3C)CC2)n1
Data returned: Criterion not met

Data request: # strict comparison: is reported CC50 at 120 h < 50 µM? input = Cc1cc(N2CCN(C(=O)c3cccc(Br)c3)CC2)nc(N(C)C)n1
Data returned: Criterion not met

Data request: Below 50 µM on CC50 at 120 h? Entry CCNc1cc(C)nc(N2CCN(C(=O)c3cccc(Br)c3)CC2)n1
Data returned: Criterion not met

Data request: Please let me know if CCNc1cc(N2CCN(S(=O)(=O)c3ccc(Cl)cc3)CC2)ncn1 shows CC50 at 120 h below 50 µM.
Data returned: Criterion met

###

test: Metabolic stability in human liver microsomes assessed as half-life preincubated for 5 mins followed by NADPH addition and measured upto 60 mins by HPLC-MS/MS analysis; type: ADME, Microsome; conditions: time < 65 min
quantity.measured: half-life

Data request: May I ask what half-life has been recorded for CCNc1cc(C)nc(N2CCN(C(=O)c3ccc(Cl)cc3)CC2)n1 ?
Data returned: > 60 min

Data request: If you can, please state the reported half-life value of CC(C)Nc1ccnc(N2CCN(S(=O)(=O)c3ccc(F)cc3)CC2)n1 .
Data returned: 46 min

Data request: Look at this molecule and give its reported half-life. Cc1cc(N(C)C)nc(N2CCN(C(=O)c3ccc(Br)cc3)CC2)n1
Data returned: 29 min

Data request: Need half-life, item O=C(c1cc(Cl)cc(Cl)c1)N1CCN(c2nc(Cl)nc3[nH]cnc23)CC1
Data returned: > 60 min

Data request: Query: half-life; subject: CCNc1cc(C)nc(N2CCN(C(=O)c3cccc([N+](=O)[O-])c3)CC2)n1
Data returned: 57 min

Data request: Looking for the measured half-life of CNc1nc(C)cc(N2CCN(S(=O)(=O)c3ccc(F)cc3)CC2)n1 , can you help?
Data returned: > 60 min

***
Data request: Value lookup for half-life; key = CCNc1nc(C)cc(N2CCN(C(=O)c3ccc(OC)cc3)CC2)n1
Data returned: > 60 min

Data request: I am curious: what half-life value has been reported for CCNc1nc(C)cc(N2CCN(C(=O)c3ccc(I)cc3)CC2)n1 ?
Data returned: > 60 min

Data request: Look up half-life: CCNc1nc(C)cc(N2CCN(Cc3ccc(F)cc3)CC2)n1
Data returned: > 60 min

Data request: Form field: reported half-life of CCNc1nc(C)cc(NC2CCN(C(=O)c3cc(Cl)cc(Cl)c3)CC2)n1
Data returned: > 60 min

Data request: Would you mind telling me what half-life value was observed for CCNc1nc(C)cc(N2CCCC(NC(=O)c3cc(Cl)cc(Cl)c3)C2)n1 (configuration not stated) ?
Data returned: 44 min

Data request: Entry CCNc1nc(C)cc(N2CCN(C(=O)c3ccc([N+](=O)[O-])cc3)CC2)n1 : reported half-life = ?
Data returned: > 60 min

Data request: Recorded half-life of CCNc1nc(C)cc(N2CCN(C(=O)c3ccc(C(C)(C)C)cc3)CC2)n1 , please.
Data returned: > 60 min

Data request: Entry CCNc1cc(C)nc(N2CCN(S(=O)(=O)c3ccc4ccccc4c3)CC2)n1 : reported half-life = ?
Data returned: 20 min
